test: Cell cytotoxicity assay (CellTiter-Glo); conditions: African green monkey, CC50, 24 h, Fig. S15
Exercise: state measured CC50 at 24 h for each of the molecules provided.

Can you share its CC50 at 24 h? I mean this molecule: CC(=O)Nc1ccc(NS(=O)(=O)c2ccc3c(c2)C(=O)c2ccccc2C3=O)cc1
15 to 42 µM

For the molecule shown here, O=C(N/N=C/c1ccccc1O)c1ccc(O)c(O)c1 , give the reported CC50 at 24 h.
15 to 42 µM

What value of CC50 at 24 h has been reported for the following molecule? O=C1/C(=C/c2cc([N+](=O)[O-])cc(Br)c2O)SC(=S)N1Cc1ccccc1
> 240 µM

Values from paper PMC10656235
